All values here come from patent US10329542B2.

molecular target: HBV genotype D RNAseH (HRHPL) (Hepatitis B virus genotype D subtype ayw, UniProt P03156, INS679M); construct: HRHPL contains HBV genotype D (Genbank V01460) polymerase residues 684-845; made in house; host or cells: E. coli BL21 codon+; assay: Oligonucleotide-directed RNAseH cleavage assay, HBV genotype D; assay type: biochemical; conditions: read-out: IC50 against HBV genotype D RNAseH
Sequence (P03156 680-832, added parts left off, stated change not applied): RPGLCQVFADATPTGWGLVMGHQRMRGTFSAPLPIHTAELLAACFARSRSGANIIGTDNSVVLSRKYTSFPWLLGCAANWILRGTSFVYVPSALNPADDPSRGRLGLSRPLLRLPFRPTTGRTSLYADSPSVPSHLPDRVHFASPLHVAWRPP
RECORDED ENDPOINT: IC50 (nM)
Express your answer in nM, writing the number without its unit.

Lookup: Entry NCc1ccc(-c2ccc(Cc3cc(=O)n(O)c4ncccc34)cc2)cc1 has what IC50?
Found: 2500

---

biological target: HBV genotype D RNAseH (HRHPL) (Hepatitis B virus genotype D subtype ayw, UniProt P03156, INS679M); construct: HRHPL contains HBV genotype D (Genbank V01460) polymerase residues 684-845; made in house; host or cells: E. coli BL21 codon+; assay: Oligonucleotide-directed RNAseH cleavage assay, HBV genotype D; type: biochemical; conditions: 10 μM; ± standard deviation, 3 to 7 replicates
RECORDED ENDPOINT: Residual activity at 10 uM, Genotype D (Percent DMSO control)
Express your answer in Percent DMSO control, writing the number without its unit.

Lookup: Entry Cc1cc(C)c(C#N)c(=N)o1 has what Residual activity at 10 uM, Genotype D?
Found: 42

Lookup: # repeat for O=c1c(O)c(-c2ccc(O)c(O)c2)oc2cc(O)c(O)c(O)c12
Found: 45

Lookup: # repeat for Cc1sc2nc(-c3ccc([N+](=O)[O-])cc3)[nH]c(=O)c2c1C
Found: 24

Lookup: # repeat for CC(Cc1ccc(O)c(O)c1)C(C)Cc1ccc(O)c(O)c1 (stereo not shown)
Found: 54

---

molecular target: HBV genotype D RNAseH (HRHPL) (Hepatitis B virus genotype D subtype ayw, UniProt P03156, INS679M); construct: HRHPL contains HBV genotype D (Genbank V01460) polymerase residues 684-845; made in house; host or cells: E. coli BL21 codon+; test: Oligonucleotide-directed RNAseH cleavage assay, HBV genotype D; assay type: biochemical; settings: listed as βTJ; read-out: IC50 against HBV genotype D RNAseH
RECORDED ENDPOINT: pIC50
Give only the number. pIC50 is defined as minus log10 of concentration in molar units.

Lookup: Entry CC(C)c1ccc(O)c(=O)c(O)c1 [Compound 46, beta-thujaplicinol] has what pIC50?
Found: 5.23

---

molecular target: human RNAseH1 (Homo sapiens); construct: hexahistidine (N); made in house; host or cells: E. coli BL21 codon+; assay: Oligonucleotide-directed RNAseH assay, recombinant human RNAseH1; type: biochemical; conditions: 10 μM, compared directly with HRHPL
Sequence (O60930 whole entry): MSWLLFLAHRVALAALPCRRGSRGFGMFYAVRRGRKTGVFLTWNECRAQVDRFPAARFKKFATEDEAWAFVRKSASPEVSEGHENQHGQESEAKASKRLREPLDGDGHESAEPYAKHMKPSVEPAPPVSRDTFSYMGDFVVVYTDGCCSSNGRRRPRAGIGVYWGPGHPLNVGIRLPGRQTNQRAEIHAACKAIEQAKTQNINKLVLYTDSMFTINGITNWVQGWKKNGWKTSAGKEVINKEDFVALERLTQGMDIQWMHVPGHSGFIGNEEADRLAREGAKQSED
RECORDED ENDPOINT: Inhibition of human RNAseH1

>  <COMPOUND>
O=c1c(O)c(-c2cc(O)c(O)c(O)c2)oc2cc(O)cc(O)c12

>  <EXPERIMENTAL RESULT>
inhibited it weakly

$$$$
>  <COMPOUND>
COc1cc2c(cc1Cc1cccc(Cl)c1F)c(=O)c(C(=O)O)cn2[C@H](CO)C(C)C [Compound 10, Elvitegravir, reference compound]

>  <EXPERIMENTAL RESULT>
had no effect on RNAseH1

$$$$
>  <COMPOUND>
Cc1nnc(C(=O)NC(C)(C)c2nc(C(=O)NCc3ccc(F)cc3)c(O)c(=O)n2C)o1 [Compound 11, Raltegravir, reference compound]

>  <EXPERIMENTAL RESULT>
had no effect on RNAseH1

$$$$
>  <COMPOUND>
NCc1ccc(-c2ccc(Cc3cc(=O)n(O)c4ncccc34)cc2)cc1

>  <EXPERIMENTAL RESULT>
inhibited it weakly

$$$$

---

biological target: HBV genotype D RNAseH (HRHPL) (Hepatitis B virus genotype D subtype ayw, UniProt P03156, INS679M); construct: HRHPL contains HBV genotype D (Genbank V01460) polymerase residues 684-845; made in house; host or cells: E. coli BL21 codon+; test: Oligonucleotide-directed RNAseH cleavage assay, HBV genotype D; format: biochemical; details: listed as β-thujaplicinol; read-out: IC50 against HBV genotype D RNAseH
RECORDED ENDPOINT: IC50 (µM)
Express your answer in µM, writing the number without its unit.

Lookup: Entry CC(C)c1ccc(O)c(=O)c(O)c1 has what IC50?
Found: 6

---

molecular target: HBV genotype D RNAseH (HRHPL) (Hepatitis B virus genotype D subtype ayw, UniProt P03156, INS679M); construct: HRHPL contains HBV genotype D (Genbank V01460) polymerase residues 684-845; made in house; host or cells: E. coli BL21 codon+; test: Oligonucleotide-directed RNAseH cleavage assay, HBV genotype D; assay type: biochemical; details: 10 μM; ± standard deviation, 3 to 7 replicates
Quick reference for Residual activity at 10 uM, Genotype D among some compounds
Express your answer in Percent DMSO control, writing the number without its unit.

>  <SMILES STR>
NCc1ccc(-c2ccc(Cc3cc(=O)n(O)c4ncccc34)cc2)cc1

>  <UNIT OF MEASURE>
Percent DMSO control

>  <Residual activity at 10 uM, Genotype D>
28

$$$$
>  <SMILES STR>
CN(C)c1ccc(-c2c3cc(O)c(=O)cc-3oc3cc(O)c(O)cc23)cc1

>  <UNIT OF MEASURE>
Percent DMSO control

>  <Residual activity at 10 uM, Genotype D>
27

$$$$

Then there is this compound:
Lookup: Entry O=c1cc2oc3cc(O)c(O)cc3c(-c3ccccn3)c-2cc1O has what Residual activity at 10 uM, Genotype D?
Found: 21

---

biological target: HBV genotype D RNAseH (HRHPL) (Hepatitis B virus genotype D subtype ayw, UniProt P03156, INS679M); construct: HRHPL contains HBV genotype D (Genbank V01460) polymerase residues 684-845; made in house; host or cells: E. coli BL21 codon+; assay: Oligonucleotide-directed RNAseH cleavage assay, HBV genotype D; assay type: biochemical; details: 10 μM; ± standard deviation, 3 to 7 replicates
Decision: Residual activity at 10 uM, Genotype D >= 30 Percent DMSO control yields criterion met, all other cases yield criterion not met.

>  <SMILES STR>
CCOC(=O)c1sc(NC(=O)CSc2nnc(Cc3ccccc3)o2)c(C#N)c1C

>  <LABEL CLASS>
criterion met

$$$$

Lookup: Has O=c1cc2oc3cc(O)c(O)cc3c(-c3ccccc3)c-2cc1O a recorded Residual activity at 10 uM, Genotype D greater than or equal to 30 Percent DMSO control?
Found: criterion not met

Lookup: # repeat for O=c1c(O)c(-c2cc(O)c(O)c(O)c2)oc2cc(O)cc(O)c12
Found: criterion met

Lookup: # repeat for Cc1c2cc(O)c(=O)cc-2oc2cc(O)c(O)cc12
Found: criterion met

---

Quick reference for Residual activity at 10 uM, Genotype D among some compounds
molecular target: HBV genotype D RNAseH (HRHPL) (Hepatitis B virus genotype D subtype ayw, UniProt P03156, INS679M); construct: HRHPL contains HBV genotype D (Genbank V01460) polymerase residues 684-845; made in house; host or cells: E. coli BL21 codon+; assay: Oligonucleotide-directed RNAseH cleavage assay, HBV genotype D; type: biochemical; conditions: 10 μM; ± standard deviation, 3 to 7 replicates
Express your answer in Percent DMSO control, writing the number without its unit.

>  <COMPOUND>
CCOc1ccc(-c2c3cc(O)c(=O)cc-3oc3cc(O)c(O)cc23)cc1 [Compound 30]

>  <Residual activity at 10 uM, Genotype D, Percent DMSO control>
23

$$$$

Lookup: Entry COc1ccc2ccccc2c1C=NNC(=O)c1cc(O)c(O)c(O)c1 [Compound 14] has what Residual activity at 10 uM, Genotype D?
Found: 46

Lookup: # repeat for O=C(O)c1ccc(-c2cccc(C=NNC(=O)c3cc(O)c(O)c(O)c3)c2)cc1 [Compound 15]
Found: 47

Lookup: # repeat for COC(=O)Oc1nsnc1N1CCOCC1 [Compound 4]
Found: 35

Lookup: # repeat for COc1ccc2ccccc2c1C=NNC(=O)c1ccc(O)c(O)c1 [Compound 13]
Found: 52

Lookup: # repeat for Cc1cc(=O)oc2cc(O)c(O)cc12 [Compound 34]
Found: 30

Lookup: # repeat for [N-]=[N+]=NCc1cccc(C(=O)CC(=O)C(=O)O)c1 [Compound 40]
Found: 21

Lookup: # repeat for NC(=O)c1c(N)sc2c1CCCCC2 [Compound 3]
Found: 43
